melting point by entry:

Sample records with melting point:
| Compound | Observed Result |
| --- | --- |
| O=C(O)CCCCCCCCCCC(=O)CCC(=O)O | 117 to 118 °C |
| Nc1c(Br)cc(C(=O)CBr)cc1Br | 146 to 147 °C |
| Cc1nc(-n2ccc(O)cc2=O)sc1C(=O)NCCC1CC1 | 234 to 236 °C |
| CC(C)(C)NC(CCOc1cccc2c1CC(=O)N2)OC(=O)Cc1ccccc1 (stereo not given) | 112 to 115 °C |
| COC(=O)c1ccccc1S(=O)(=O)NC(=O)Nc1nc(N)cc(Cl)n1 | 170 to 172 °C |

Q: Give the measured melting point of CC(C)(C)OC(=O)N[C@@H](C(=O)N1CCC[C@H]1C(=O)NCC1CCc2n[nH]cc2C1)C(c1ccccc1)c1ccccc1 (stereo not given in full) .
A: 113 to 116 °C

Q: Same for "O=C(C=NO)Nc1ccc(F)c(F)c1"
A: 148 to 150 °C

Q: Quick one: "CCCCOc1c(CN2C(=O)c3ccccc3C2=O)n(CCC(=O)O)c(=O)c2cc(Cl)c(Cl)cc12"
A: 196 to 197 °C

Q: Would you kindly repeat that for "OCCc1ccc(COc2cccc(-c3c(-c4ccccc4)cnc4c(C(F)(F)F)cccc34)c2)cc1" ?
A: 50 °C

Q: What do you have for "Nc1cccc2cc(-c3ccccc3)cnc12" ?
A: 64 to 66 °C

----------
# key: entry, value: melting point

| Molecule | melting point |
| --- | --- |
| O=C(c1ccc(Br)cc1)c1ccc2cc[nH]c2c1 | 47 to 49 °C |
| Brc1cccc2c1SSSSS2 | 93 to 98 °C |
| CC(C)Cc1ccc(C(C)C(=O)NCCN(O)C(N)=O)cc1 (configuration not stated) | 150 to 152 °C |
| CC(=O)NCC(=O)NCC(=O)N1CC1C#N (configuration not stated) | 70 to 76 °C |
| CC(C)c1cccc2c1C(=O)N(COC(=O)c1c(Cl)ccc(OCC(=O)O)c1Cl)S2(=O)=O | 210 to 212 °C |

Q: Which measured melting point value corresponds to CC(COc1ccc(CC2SC(=O)NC2=O)cc1)NCC(O)COc1ccccc1 (configuration not stated) ?
A: 64 to 68 °C

Q: Another molecule to look at: "COc1ccc(C(=O)c2ccccc2NC(=O)CNC(=O)OCc2ccccc2)cc1"
A: 97 to 98 °C

Q: One more molecule: "Oc1cc2[nH]c3c(O)c(O)cc(Br)c3c2cc1O"
A: > 260 °C

----------
Some compounds, each annotated with its measured melting point.

| Compound | melting point |
| --- | --- |
| CC(=O)Nc1ccc(-c2cc(-c3ccc(NC(C)=O)cc3C)cc(-c3ccc(NC(C)=O)cc3C)c2)c(C)c1 | 180 °C |

Q: GET /values?readout=melting point&item= "CC(C)Cn1cnc2c(N)nc3cccc(-c4ccccc4)c3c21"
A: 263 to 265 °C

Q: Follow-up item: "CCOc1cc2c(cc1OC)C(c1ccc(C(=O)N3CCOCC3)cc1)=N[C@@H]1CCOC[C@H]21"
A: 116 to 120 °C

Q: Do the same for O=C(c1ccc(F)cc1)N1CC2CC2(c2ccc(Cl)cc2)C1 (stereo not given) please
A: 130 to 132 °C

Q: Next up: "CC(C)(C)c1ccc2c(O)ccnc2c1"
A: 207 to 209 °C

----------
In this section we review reported melting point values for a set of molecules.

# count of solved cases: 4
| Molecule | Value Kind | Observed Result |
| --- | --- | --- |
| COc1ccc2[nH]c(SCc3nccc(N4CCOCC4)c3F)nc2c1 | melting point | 121 to 123 °C |
| CC1CC(c2ccc(OCC(=O)O)c(Cl)c2Cl)=CC(=O)C1C (stereo not given) | melting point | 151 to 153 °C |
| CC(OC(=O)OCC(=O)N(C)C)OC(=C1C(=O)N(C(N)=O)c2cc(Cl)c(F)cc21)c1cccs1 (stereo not given) | melting point | 194 to 196 °C |
| Cn1nc(-c2ccc(Cl)c(Cl)c2)c2ccccc2c1=O | melting point | 179 to 181 °C |

Now take the following molecule into account.
Q: Sample "CC(=O)Nc1cc([N+](=O)[O-])c(Cl)cc1F" — what was its melting point?
A: 125 to 126 °C

----------
# Lookup of reported melting point keyed by entry

Reference set, count: 3
| Molecule | melting point |
| --- | --- |
| CC(C)(C)OC(=O)Nc1ccn2nc(N3CCCC3)nc2c1 | 216 to 219 °C |
| CCOC(=O)C1=Cc2cccc(SC)c2OCC1 | 54 to 55 °C |
| CNC1=NS(=O)N=C1NCCS (stereo not given) | 191 to 193 °C |

Q: Dear colleague, I am looking for the recorded melting point of the following molecule: "O=Cc1ccccc1C(=O)c1ccc(Br)cc1"
A: 103 to 109 °C

Q: Repeat with "CCCCCCCCOC(=O)C(=C1SCCS1)c1cccc(C(F)(F)F)c1"
A: 42 to 43 °C

Q: Next molecule: "CCCN(CCC)C(=O)Cn1c(-c2ccc(F)cc2)nc2cccnc21"
A: 135 to 136 °C

Q: Entry to check: "O=C(c1cccs1)c1cnn2c(-c3cccc(-c4nnn(CCN5CCCCC5)n4)c3)ccnc12"
A: 117 °C

Q: Lookup "COCCOc1cc(N)c(Cl)cc1C(=O)NCC12CCCN(CCC1)C2"
A: 154 to 156 °C

----------
Value Kind: melting point

Please review the entries below; each comes with its answer.
| Compound | melting point |
| --- | --- |
| CC1(C)CC(=O)C2=C(C1)NC1=C(C(=O)CC(C)(C)C1)C2c1ccc(Cl)c(OCc2ccccc2)c1 | 243 to 244 °C |
| CCNC(=O)CN(C)C(=O)[C@H](C)NC(=O)CC | 149 to 151 °C |
| Sc1nc2cc3ccccc3cc2[nH]1 | 303 to 305 °C |
| NC(CCCCNC(=O)NC(Cc1c[nH]c2ccccc12)C(=O)O)C(=O)O (stereo not given) | 133 °C |
| CC(=O)NC1CCC(Nc2ncc3c(N)cc(=O)n(CCCO)c3n2)CC1 (stereo not given) | > 300 °C |
| C#CCc1nc(-c2ccc(C)cc2)oc1C | 65 to 68 °C |
| CN(C)Cc1cccc(OCCCNc2nc(N)nn2C)c1 | 95 to 96.5 °C |
| CN(c1ccccc1)c1ncnc2cc(C(F)(F)F)ccc12 | 135 to 137 °C |

Q: Consider the compound "CCCc1nc2c(N)nc(C)c(C)c2n1CC1(O)CCC1" and give its measured melting point.
A: 180 to 181 °C

Q: What do you get for "COc1ccc(NS(=O)(=O)c2cccc3c(N(C)C)cccc23)nn1" ?
A: 125 to 127 °C

Q: Would you kindly repeat that for "Clc1nc(C(Cl)Cl)c(Cl)s1" ?
A: 42 to 44 °C

----------
We begin with a simple list: items and their reported melting point.

Some solved entries appear below for comparison.
| Compound | Observed Result |
| --- | --- |
| Cc1ccc(CNC(=O)c2ccc3n2Cc2ccccc2N(C(=O)c2ccc(-c4ccccc4C)c(C)c2)C3)cc1 | 179 to 181 °C |
| CSC(=S)NCCCN1CCN(c2ccccc2)CC1 | 75 to 79 °C |
| CC1(C)CC(NC(=O)C(=O)NCCO)CC(C)(C)N1OC1CCCCC1 | 190 to 192 °C |
| CCCn1nc(SCCCCCC(=O)O)c(C(=O)O)c1Cc1cc2c(cc1Cl)OCO2 | 88 °C |
| Cc1ccc2nc(-c3cc(C(F)(F)F)nn3-c3ccc(S(C)(=O)=O)cc3)oc2c1 | 209 to 210 °C |
| COc1cc(CO)ccc1OCc1nc(-c2cccc([N+](=O)[O-])c2)oc1C | 134 to 135 °C |
| CCCCNC(=O)[C@@H](C[C@H](O)[C@@H](N)CC1CCCCCC1)C(C)C | 81 to 82 °C |
| CCCCNC(=O)c1nc2cnn(CC)c2nc1-c1ccccc1 | 127 to 128 °C |
| COc1ccc(-c2nc3cccc(OC)c3c(=O)[nH]2)nc1-c1ccc(S(C)=O)cc1 (stereo not given) | 308 to 310 °C |

Q: Which melting point is reported for this compound? "COC(=O)C[C@@H](SCc1ccccc1)C(=O)O"
A: 91 to 92 °C

----------
Value Kind: melting point

Q: Fill in the blank: the reported melting point of c1ccc(C2NCCc3sccc32)cc1 (stereo unspecified) is ____.
A: 79.8 to 80.7 °C

Q: Try this compound next: C=CCC1c2ccccc2Cn2cc3c(c21)C(=O)c1ccccc1C3=O (stereo unspecified)
A: 159 to 160 °C

Q: Then CCOC(=O)c1nnc2ccc(NC(=O)NC(Cc3ccccc3)C(=O)OC)cc2c1O (stereo unspecified) ?
A: 242 to 243 °C
